# pIC50 measurements, system: UniProtKB Q9NWZ3
# Sequence (Q9NWZ3 whole entry): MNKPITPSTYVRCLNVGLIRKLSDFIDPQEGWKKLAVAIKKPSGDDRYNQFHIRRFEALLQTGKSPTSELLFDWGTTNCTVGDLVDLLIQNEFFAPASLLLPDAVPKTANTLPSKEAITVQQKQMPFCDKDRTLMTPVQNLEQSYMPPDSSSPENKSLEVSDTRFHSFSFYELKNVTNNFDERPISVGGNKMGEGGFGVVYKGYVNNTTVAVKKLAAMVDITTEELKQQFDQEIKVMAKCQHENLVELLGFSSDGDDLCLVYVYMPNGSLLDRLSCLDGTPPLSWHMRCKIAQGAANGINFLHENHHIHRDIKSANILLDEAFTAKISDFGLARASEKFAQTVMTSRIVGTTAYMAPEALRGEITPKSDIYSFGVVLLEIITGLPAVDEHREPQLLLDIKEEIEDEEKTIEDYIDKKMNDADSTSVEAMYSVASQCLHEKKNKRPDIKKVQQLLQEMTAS
Scale: pIC50 equals -log10([C]), with [C] in mol/L.

Worked set:
- COMPOUND: "CC(C)(O)[C@H](F)CNC(=O)c1cnc(-c2cnc3cc(C#N)cnn23)cc1NC1CCOCC1 [Example 146]"
  pIC50: 8.70
- COMPOUND: "CC(C)(O)[C@H](F)CNC(=O)c1cnc(-c2cnn3cc(C#N)cnc23)cc1NC1CCCOC1 (single isomer, unassigned) [Example 94]"
  pIC50: 8.00
- COMPOUND: "CC(C)(O)[C@H](F)CNC(=O)c1cnc(-c2cnc3cc(C#N)cnn23)cc1NC1CC1 [Example 182]"
  pIC50: 8.70
- COMPOUND: "CC(C)Nc1cc(-c2cnc3cccnn23)ncc1C(=O)NC[C@@H](F)C(C)(C)O [Example 21]"
  pIC50: 8.15
- COMPOUND: "CCn1cc(Nc2cc(-c3cnc4cc(C#N)cnn34)ncc2C(=O)NC[C@@H](F)C(C)(C)O)cn1 [Example 267]"
  pIC50: 8.70

Turning now to a further compound:
Dear colleague, I am looking for the recorded pIC50 of the following compound: CO[C@H]1CC[C@H](NC(=O)c2cnc(-c3cnn4cc(Cl)cnc34)cc2NC(C)C)CC1 [Example 11]
7.85
